Exercise: for every item that follows, state its recorded Dmax.
# study_system: BRAF D594G (Homo sapiens, UniProt P15056, D594G)
# Construct: Horizon Discovery (HCT-116 BRAF−/− cells); host or cells: HCT-116 BRAF−/− cells, clone 63, lentiviral transduction
# Sequence (P15056 whole entry D594G): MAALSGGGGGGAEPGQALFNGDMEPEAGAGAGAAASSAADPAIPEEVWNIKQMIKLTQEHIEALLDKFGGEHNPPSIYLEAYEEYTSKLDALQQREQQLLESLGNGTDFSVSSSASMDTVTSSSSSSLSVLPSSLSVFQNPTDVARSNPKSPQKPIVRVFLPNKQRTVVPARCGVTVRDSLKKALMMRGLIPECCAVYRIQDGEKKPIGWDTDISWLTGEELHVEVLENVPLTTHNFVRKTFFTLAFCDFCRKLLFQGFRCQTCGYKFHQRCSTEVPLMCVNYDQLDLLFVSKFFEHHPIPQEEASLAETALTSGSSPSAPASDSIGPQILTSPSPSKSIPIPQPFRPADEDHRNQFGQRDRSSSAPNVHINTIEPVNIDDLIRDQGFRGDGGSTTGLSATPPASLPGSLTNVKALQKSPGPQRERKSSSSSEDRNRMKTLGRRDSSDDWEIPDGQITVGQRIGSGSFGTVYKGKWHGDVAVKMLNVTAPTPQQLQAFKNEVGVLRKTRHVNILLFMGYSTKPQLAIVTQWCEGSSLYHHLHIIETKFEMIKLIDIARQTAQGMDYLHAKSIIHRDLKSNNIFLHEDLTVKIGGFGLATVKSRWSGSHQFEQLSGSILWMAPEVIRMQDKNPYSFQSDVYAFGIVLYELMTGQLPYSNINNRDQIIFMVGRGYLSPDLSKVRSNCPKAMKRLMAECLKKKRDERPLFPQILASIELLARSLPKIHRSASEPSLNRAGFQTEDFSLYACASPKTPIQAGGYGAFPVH
# run_description: BRAF HiBiT degradation assay, C-terminal HiBiT-tagged BRAF D594G overexpressed in HCT-116 BRAF−/− cells (clone 63), Nano-Glo HiBiT Lytic assay
# Type: cell-based
# condition_description: BRAF D594G (Class 3), HCT-116 BRAF−/− cells; observed Dmax relative to DMSO control

# query: Dmax of entry CCN(C)S(=O)(=O)Nc1cc(Cl)cc(-c2cn(-c3ccc(N4CCN(CC5CCN(c6ccc([C@H]7CCC(=O)NC7=O)cc6)CC5)CC4)cn3)nc2-c2ccncc2)c1F [Compound 310]
> 70%

# query: Dmax of entry CCC(C)S(=O)(=O)Nc1cc(Cl)cc(-c2cn(-c3ccc(N4CCN(CC5CCN(c6ccc(N7CCC(=O)NC7=O)cc6)CC5)CC4)cc3)nc2-c2ccncc2)c1F (racemic) [Compound 328]
30 to 70%

# query: Dmax of entry O=C1CCC(c2ccc(N3CCC(CN4CCCN(c5ccc(-n6cc(-c7cc(Cl)cc(NS(=O)(=O)N8CCCC8)c7F)c(-c7ccncc7)n6)c(F)c5)CC4)CC3)nc2)C(=O)N1 (racemic) [Compound 345]
< 30%

# query: Dmax of entry CCCS(=O)(=O)Nc1cccc(-c2nc(C3CCC4(CC3)CCN(C(=O)C3CCN(c5cccc6c5n(C)c(=O)n6C5CCC(=O)NC5=O)CC3)CC4)sc2-c2ccnc(N)n2)c1F (racemic) [Compound 251]
30 to 70%

# query: Dmax of entry CCCS(=O)(=O)Nc1cccc(-c2nc(C3CCC4(CC3)CCN(C[C@H]3CC[C@H](Oc5ccc(C6CCC(=O)NC6=O)cn5)CC3)CC4)sc2-c2ccnc(N)n2)c1F (mixture of isomers) [Compound 257]
< 30%

FYI, the data here is from patent US20260317324A1.
